Tested on: Enterococcus faecalis UC ® No. 9217
measurement.kind: MIC (µg/mL)
Entry rule: numbers only, all in µg/mL.

COc1ccc(-c2ccc(C3=NOC(CNC(C)=O)C3)cc2)ccc1=O (racemic)    4
CC(=O)NCC1CC(c2ccc(C3=CCN(C(=O)CO)CC3)cc2)=NO1 (stereo not drawn)    8
CC(=O)NC[C@H]1CC(c2ccc(-c3ccncc3)cc2)=NO1    2

# input Param item = CC(=O)NCC1CC(c2ccc(C3=CCN(C(C)=O)CC3)cc2)=NO1 (stereo not drawn) ; retrieve measured MIC.
# output 16

# input Given COC(=O)N1CC=C(c2ccc(C3=NOC(CNC(C)=O)C3)cc2)CC1 (stereo not drawn) , state its recorded MIC.
# output 16

# input Please give the measured MIC for this molecule: `CC(=O)NC[C@H]1CC(c2ccc(C3=CCN(C(=O)CO)CC3)cc2)=NO1`
# output 4
